Source: the supplement of paper PMC6992640

system: UCD52 (cells of a triple-negative basal-like breast cancer xenograft); experiment: cell viability of combination (% of vehicle); higher = less cytotoxic; settings: 1 µM; 72 h; partner dose: 10 nM
For each record, write down the corresponding cell viability of combination.
Answers are plain numbers.

COc1ccc2cc1Oc1ccc(cc1)CC1c3c(cc4c(c3Oc3cc5c(cc3OC)CCN(C)C5C2)OCO4)CCN1C (stereo not drawn) [Cepharanthine] + CN(C)C/C=C/C(=O)Nc1cc2c(Nc3ccc(F)c(Cl)c3)ncnc2cc1O[C@H]1CCOC1
40.1
CNC(=O)c1cc(Oc2ccc(NC(=O)Nc3ccc(Cl)c(C(F)(F)F)c3)c(F)c2)ccn1.Cl [Regorafenib hydrochloride] + CN(C)C/C=C/C(=O)Nc1cc2c(Nc3ccc(F)c(Cl)c3)ncnc2cc1O[C@H]1CCOC1
53.3
[O-]n1ccccc1=S.[O-]n1ccccc1=S.[Zn+2] [Zinc Pyrithione] + CN(C)C/C=C/C(=O)Nc1cc2c(Nc3ccc(F)c(Cl)c3)ncnc2cc1O[C@H]1CCOC1
56

Here are 3 compounds. What values of cell viability of combination were reported for them?
1. CCOc1nc2cccc(C(=O)OC(C)OC(=O)OC3CCCCC3)c2n1Cc1ccc(-c2ccccc2-c2nn[nH]n2)cc1 (stereo not drawn) [Candesartan Cilexetil] + CN(C)C/C=C/C(=O)Nc1cc2c(Nc3ccc(F)c(Cl)c3)ncnc2cc1O[C@H]1CCOC1
2. CSc1ccc2c(c1)N(CCC1CCCCN1C)c1ccccc1S2.Cl (stereo not drawn) [Thioridazine HCl] + CN(C)C/C=C/C(=O)Nc1cc2c(Nc3ccc(F)c(Cl)c3)ncnc2cc1O[C@H]1CCOC1
3. CC1(COc2ccc3c(c2)ncn3-c2ccc3cccc(N4CCC(N)CC4)c3n2)COC1 + CN(C)C/C=C/C(=O)Nc1cc2c(Nc3ccc(F)c(Cl)c3)ncnc2cc1O[C@H]1CCOC1

[74.5, 58.1, 108]

For every item in the list below, what is its measured cell viability of combination?
1. CC(C)c1nc(CN(C)C(=O)NC(C(=O)NC(Cc2ccccc2)CC(O)C(Cc2ccccc2)NC(=O)OCc2cncs2)C(C)C)cs1 (stereo not drawn) [Ritonavir] + CN(C)C/C=C/C(=O)Nc1cc2c(Nc3ccc(F)c(Cl)c3)ncnc2cc1O[C@H]1CCOC1
2. CN1CCN(c2ccc(C(=O)/N=c3\[nH][nH]c4ccc(Cc5cc(F)cc(F)c5)cc34)c(NC3CCOCC3)c2)CC1 [Entrectinib] + CN(C)C/C=C/C(=O)Nc1cc2c(Nc3ccc(F)c(Cl)c3)ncnc2cc1O[C@H]1CCOC1

1: 62.5; 2: 54.3
